- Test system: SNB-75
- assay procedure: NCI tumour cell line growth inhibition, 48 h
The source made the active and inactive calls. No stated cut-off is given here; in the data, active = GI50 up to about 1.1 µM and inactive = higher.
parameter measured: GI50

*Q* I have this molecule here, "CCN(c1ccccc1)[C@H]1C(=O)N(c2ccc([N+](=O)[O-])cc2)[C@H]1c1ccc(OC)cc1" , and I need its recorded GI50.
*A* 46.9 µM (inactive)

*Q* I have this molecule here, "N=C(N)NS(=O)(=O)c1ccc(NNC(=O)c2cccc3c(O)c4ccccc4nc23)cc1" , and I need its recorded GI50.
*A* 30.7 µM (inactive)

*Q* I have this molecule here, "O=C(Nc1nc2ccccc2n1Cc1ccc(Cl)cc1)NC12CC3CC(CC(C3)C1)C2" , and I need its recorded GI50.
*A* 7.74 µM (inactive)

*Q* I have this molecule here, "Nc1nc(SCc2ccccc2Cl)cc(C(=O)O)n1" , and I need its recorded GI50.
*A* > 100 µM (inactive)

*Q* I have this molecule here, COc1ccc(N2C(=O)[C@H]3CC(C)c4c([nH]c5ccccc45)[C@H]3C2=O)cc1 (stereo not given in full) , and I need its recorded GI50.
*A* 2.03 µM (inactive)

*Q* I have this molecule here, "CN1CCN(c2ccncc2S(=O)(=O)N2CCN(C)CC2)CC1" , and I need its recorded GI50.
*A* > 100 µM (inactive)

*Q* I have this molecule here, O=C1CSC(c2cccc(Oc3ccccc3)c2)N1c1cccc(Cl)c1Cl (stereo not given) , and I need its recorded GI50.
*A* 41 µM (inactive)

*Q* I have this molecule here, "CC(C)C(=O)/C=C/c1ccc(Cl)cc1" , and I need its recorded GI50.
*A* 15.8 µM (inactive)

*Q* I have this molecule here, COC(=O)CCC1=C(CC(=O)OC)C(C)(OC)N/C1=N/C(=O)OCc1ccccc1 (stereo not given) , and I need its recorded GI50.
*A* > 100 µM (inactive)

*Q* I have this molecule here, "COc1cc(O)c2c(=O)c(OC)c(-c3ccc4c(c3)OCO4)oc2c1OC" , and I need its recorded GI50.
*A* 11.6 µM (inactive)
